- assayed_system: T1, recombinant MS4A4A soluble polypeptide JS1
- T1 construct: also called JS1.His; loop grafted antigen
- measurement_description: ELISA, 1 ug/ml antibody
- Method: Anti-MS4A4A antibodies of the present disclosure were tested for their ability to bind to the different recombinant MS4A4A soluble polypeptides, as described in Example 2, as follows. Nucleic acid encoding the VH and VL domains of humanized anti-MS4A4A antibodies of the present disclosure were cloned into pcDNA3.4 vector which contains either the human IgG1 heavy chain constant domain or human kappa constant domain. […]
# OD450 per entry
Output spec: single numeric token, no unit.

// solved cases for OD450 follow
[[record]]
binder = "anti-MS4A4A antibody 4A-339 (antibody, human IgG1, V domains shown, humanized 4A-21; human IgG1/kappa) VH: QVQLVQSGSELKKPGASVKVSCKASGYIFTSYGLSWVRQAPGQGLEWMGWINTYSGVPTYAQGFTGRFVFSLDTSVSTTYLQISSLKAEDTAVYYCARSLVDYWGQGTLVTVSS VL: DVVMTQTPLSSPVTLGQPASISCKSSQSLLYSDGKTYLSWLQQRPGQPPRRLIYLVSKLDSGVPDRFSGSGAGTDFTLKISRVEAEDVGVYYCWQGIDFHQTFGGGTKVEIK"
experimental_value = 1.76

[[record]]
binder = "anti-MS4A4A antibody 4A-348 (antibody, human IgG1, V domains shown, humanized 4A-21; human IgG1/kappa) VH: QIQLVQSGAEVKKPGASVKVSCKASGYIFTSYGLSWVRQAPGQGLEWMGWINTYSGVPTYAQKFQGRVTMTRDTSTSTVYMELSSLRSEDTAVYYCARSLVDYWGQGTLVTVSS VL: DIVMTQTPLSLSVTPGQPASISCKSSQSLLYSDGKTYLSWYLQKPGQPPQLLIYLVSKLDSGVPDRFSGSGSGTDFTLKISRVEAEDVGVYYCWQGIDFHQTFGGGTKVEIK"
experimental_value = 0.131


Turning to the following binder.
Enquiry: Which value of OD450 has been reported for anti-MS4A4A antibody 4A-349 (antibody, human IgG1, V domains shown, humanized 4A-21; human IgG1/kappa) VH: QIQLVQSGAEVKKPGASVKVSCKASGYIFTSYGLSWVRQAPGQGLEWMGWINTYSGVPTYAQKFQGRVTMTLDTSTSTTYMELSSLRSEDTAVYYCARSLVDYWGQGTLVTVSS VL: DIVMTQTPLSLSVTPGQPASISCKSSQSLLYSDGKTYLSWYLQKPGQPPQLLIYLVSKLDSGVPDRFSGSGSGTDFTLKISRVEAEDVGVYYCWQGIDFHQTFGGGTKVEIK in the records?
Return: 0.331
